// reported growth per item
- Test system: PC-3 prostate
- Experimental Protocol: NCI-60 one-dose screen, 48 h (100 = growth as untreated, 0 = no growth, -100 = all killed)
- Conditions Used: 10 µM unless noted
Compounds without any hit were thinned out: in the full panel of roughly 83,000, 20% have a hit. Active and inactive are the calls of the source. The calls were made as follows: active = growth percent below 10; inactive = the rest.

Some molecules with known growth results, for comparison:
COc1ccc(-c2cnnn2-c2nonc2-n2cccc2)cc1
28.8% (inactive)
CCCCCCCCCCCCNC(=O)N[C@H](C(=O)N[C@H]1/C=C/OCCNC(=O)/C=C/[C@H](C(C)C)NC1=O)C(C)C
51.1% (inactive)
Cn1c(=O)c2c(nc(N/N=C/c3ccccc3Cl)n2C)n(C)c1=O
99.3% (inactive)
Cc1cccc2nc3ccccc3c(Nc3ccc(NS(C)(=O)=O)cc3)c12
66.7% (inactive)

stdin: Recall and state the measured growth for CCOc1cc(/C=N\NC(=O)C[N+](C)(C)C)ccc1O .
stdout: 99.6% (inactive)

stdin: Provide only the value of recorded growth for O=c1c2cc(Cl)ccc2oc2ccc(OCCCCCN3CCCCCC3)cc12
stdout: 83.2% (inactive)

stdin: Identify measured growth associated with CC(C)(C)c1nn(-c2ccccc2)c2c1C(=O)CSC(c1ccc3c(c1)OCO3)N2 (configuration not stated)
stdout: 84.4% (inactive)

stdin: Provide only the value of recorded growth for CC(=O)C1CCC2C3CC(C)=C4CC(O)CCC4(C)C3CCC12C (configuration not stated)
stdout: 88.2% (inactive)
